target: FXIIIa (Homo sapiens, UniProt P00488); construct: purchased Haematologic Technologies; host or cells: human plasma; experiment: bisubstrate, fluorescence-based trans-glutamination assay; type: biochemical; details: highest concentration tested
Sequence (P00488 39-732 limits assumed): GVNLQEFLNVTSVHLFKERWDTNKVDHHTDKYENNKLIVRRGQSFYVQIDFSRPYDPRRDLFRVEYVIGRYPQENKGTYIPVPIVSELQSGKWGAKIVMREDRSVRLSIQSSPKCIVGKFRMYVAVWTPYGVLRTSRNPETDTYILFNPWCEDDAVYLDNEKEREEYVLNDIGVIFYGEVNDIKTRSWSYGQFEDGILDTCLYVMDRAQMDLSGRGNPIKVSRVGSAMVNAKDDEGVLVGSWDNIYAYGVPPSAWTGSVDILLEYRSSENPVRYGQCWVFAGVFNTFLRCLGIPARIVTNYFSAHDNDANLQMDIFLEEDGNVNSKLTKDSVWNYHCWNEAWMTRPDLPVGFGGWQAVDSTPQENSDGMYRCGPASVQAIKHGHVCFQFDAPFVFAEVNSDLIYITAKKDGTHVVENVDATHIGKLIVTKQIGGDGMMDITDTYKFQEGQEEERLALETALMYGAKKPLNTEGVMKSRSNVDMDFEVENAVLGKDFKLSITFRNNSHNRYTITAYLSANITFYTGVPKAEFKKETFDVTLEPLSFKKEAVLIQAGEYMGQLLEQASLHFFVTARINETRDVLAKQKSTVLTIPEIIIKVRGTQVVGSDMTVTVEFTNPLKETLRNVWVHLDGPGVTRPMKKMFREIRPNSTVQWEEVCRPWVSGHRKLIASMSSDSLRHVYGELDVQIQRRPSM
readout.label: FXIIIa inhibition at the highest concentration tested

Cc1ccc(C(=O)Nc2cc(S(=O)(=O)O)cc3ccc(S(=O)(=O)O)cc23)cc1NC(=O)Nc1cc(C(=O)Nc2cc(S(=O)(=O)O)cc3ccc(S(=O)(=O)O)cc23)ccc1C [compound 8]	did not inhibit
O=C(Nc1cc(C(=O)Nc2ccc(S(=O)(=O)O)cc2)cc(C(=O)Nc2ccc(S(=O)(=O)O)cc2)c1)Nc1cc(C(=O)Nc2ccc(S(=O)(=O)O)cc2)cc(C(=O)Nc2ccc(S(=O)(=O)O)cc2)c1 [compound 10]	did not inhibit
O=C(Nc1cccc(C(=O)Nc2cc(C(=O)Nc3ccc(S(=O)(=O)O)c4cc(S(=O)(=O)O)cc(S(=O)(=O)O)c34)ccc2F)c1)Nc1cccc(C(=O)Nc2cc(C(=O)Nc3ccc(S(=O)(=O)O)c4cc(S(=O)(=O)O)cc(S(=O)(=O)O)c34)ccc2F)c1 [compound 4]	did not inhibit
O=C(Nc1ccc2c(O)cc(S(=O)(=O)O)cc2c1)Nc1ccc2c(O)cc(S(=O)(=O)O)cc2c1 [compound 23]	did not inhibit

* * *

// values below are reported IC50
target: thrombin (Homo sapiens); construct: Human plasma proteins such as FXIIIa, thrombin, factor Xa, and factor XIa; assay: chromogenic substrate hydrolysis assay, thrombin; conditions: Tris-HCl pH 7.4, 37 °C; > values from highest concentration used

Note to self: IC50 recorded for COc1cc(-c2ccc(/N=N/c3ccc4c(S(=O)(=O)O)cc(S(=O)(=O)O)c(N)c4c3O)c(OC)c2)ccc1/N=N/c1ccc2c(S(=O)(=O)O)cc(S(=O)(=O)O)c(N)c2c1O [compound 19] was > 100 µM

* * *

Target: rTG-2 (recombinant human tissue transglutaminase-2) (Homo sapiens, UniProt P21980)
Sequence (P21980 whole entry): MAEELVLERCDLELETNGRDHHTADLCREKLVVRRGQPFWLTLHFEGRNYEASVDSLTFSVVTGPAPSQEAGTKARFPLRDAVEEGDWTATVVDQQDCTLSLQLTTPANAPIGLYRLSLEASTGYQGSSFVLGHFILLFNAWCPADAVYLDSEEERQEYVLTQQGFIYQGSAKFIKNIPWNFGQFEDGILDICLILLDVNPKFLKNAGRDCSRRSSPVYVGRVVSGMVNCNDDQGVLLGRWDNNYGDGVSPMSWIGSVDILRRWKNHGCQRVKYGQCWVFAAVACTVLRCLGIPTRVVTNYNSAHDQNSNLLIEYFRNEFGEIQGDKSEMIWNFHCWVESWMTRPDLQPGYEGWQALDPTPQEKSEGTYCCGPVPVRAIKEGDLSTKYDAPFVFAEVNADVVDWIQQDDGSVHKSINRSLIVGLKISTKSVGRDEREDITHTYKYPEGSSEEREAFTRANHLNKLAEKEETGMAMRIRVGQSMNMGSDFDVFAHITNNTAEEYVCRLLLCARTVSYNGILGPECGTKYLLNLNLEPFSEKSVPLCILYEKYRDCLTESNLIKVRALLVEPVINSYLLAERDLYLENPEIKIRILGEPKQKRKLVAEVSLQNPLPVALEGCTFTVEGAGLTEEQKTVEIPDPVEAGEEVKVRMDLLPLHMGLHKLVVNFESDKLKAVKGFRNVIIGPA
Assay: bisubstrate, fluorescence-based trans-glutamination assay with recombinant TG-2
Details: recombinant TG-2
From the text: FXIIIa and TG-2 belong to the same transglutaminase superfamily, and they share similar protein folds with a sequence similarity of 34%. Although we believe that sulfonated heparin mimetics are less likely to distribute to peripheral tissues, we evaluated inhibitor 16′s potential to inhibit TG-2 (we used recombinant TG-2). […] Likewise, we studied the inhibition of papain, a related cysteine protease, by molecule 16. […]
readout.label: IC50 (µM)
Your answer is read as µM, so omit the unit and give the number.

Note to self: IC50 recorded for Nc1c(/N=N/c2ccc(S(=O)(=O)CCOS(=O)(=O)O)cc2)c(S(=O)(=O)O)cc2cc(S(=O)(=O)O)c(/N=N/c3ccc(S(=O)(=O)CCOS(=O)(=O)O)cc3)c(O)c12 was 18.1

* * *

target: factor XIa (Homo sapiens, UniProt P03951); construct: Human plasma proteins such as FXIIIa, thrombin, factor Xa, and factor XIa; assay: chromogenic substrate hydrolysis assay, factor XIa; details: Tris-HCl pH 7.4, 37 °C; > values from highest concentration used; read-out: FXIa IC50
Sequence (P03951 388-625 limits assumed): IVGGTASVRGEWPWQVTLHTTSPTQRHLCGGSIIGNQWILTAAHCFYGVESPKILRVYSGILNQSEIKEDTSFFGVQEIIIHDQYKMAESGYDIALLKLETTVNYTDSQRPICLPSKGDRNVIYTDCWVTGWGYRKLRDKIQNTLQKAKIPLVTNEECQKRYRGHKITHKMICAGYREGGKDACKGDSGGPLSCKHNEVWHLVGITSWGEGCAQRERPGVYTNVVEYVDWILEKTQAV
Sequence (P03951 19-387 limits assumed): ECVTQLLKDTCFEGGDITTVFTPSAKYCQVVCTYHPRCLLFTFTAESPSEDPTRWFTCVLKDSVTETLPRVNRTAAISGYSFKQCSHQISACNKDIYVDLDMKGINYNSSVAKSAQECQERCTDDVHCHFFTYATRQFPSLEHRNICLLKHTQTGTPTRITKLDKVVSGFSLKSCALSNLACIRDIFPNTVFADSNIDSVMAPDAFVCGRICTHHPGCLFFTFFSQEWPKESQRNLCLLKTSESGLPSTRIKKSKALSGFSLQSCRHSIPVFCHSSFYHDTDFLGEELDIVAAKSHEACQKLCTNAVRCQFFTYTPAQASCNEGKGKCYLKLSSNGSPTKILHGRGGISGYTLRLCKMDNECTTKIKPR
readout.label: IC50

Here's what some known entries look like.
Nc1c(/N=N/c2ccc(Nc3nc(Cl)nc(Nc4cccc(S(=O)(=O)O)c4)n3)cc2S(=O)(=O)O)c(S(=O)(=O)O)cc2c(O)c(/N=N/c3ccc(Nc4nc(Cl)nc(Nc5cccc(S(=O)(=O)O)c5)n4)cc3S(=O)(=O)O)ccc12	> 150 µM
Nc1c(S(=O)(=O)O)cc(Nc2ccc(Nc3nc(Cl)nc(Nc4ccccc4S(=O)(=O)O)n3)c(S(=O)(=O)O)c2)c2c1C(=O)c1ccccc1C2=O	> 150 µM

Note to self: IC50 recorded for COc1cc(-c2ccc(/N=N/c3ccc4c(S(=O)(=O)O)cc(S(=O)(=O)O)c(N)c4c3O)c(OC)c2)ccc1/N=N/c1ccc2c(S(=O)(=O)O)cc(S(=O)(=O)O)c(N)c2c1O was 6.2 µM

Note to self: IC50 recorded for Nc1c(/N=N/c2ccc(S(=O)(=O)CCOS(=O)(=O)O)cc2)c(S(=O)(=O)O)cc2cc(S(=O)(=O)O)c(/N=N/c3ccc(S(=O)(=O)CCOS(=O)(=O)O)cc3)c(O)c12 was > 150 µM

* * *

molecular target: FXIIIa (Homo sapiens, UniProt P00488); construct: purchased Haematologic Technologies; host or cells: human plasma; test: bisubstrate, fluorescence-based trans-glutamination assay; format: biochemical; conditions: logistic fit eq 1
readout.label: HS (Hill slope), FXIIIa inhibition

O=C(Nc1ccc(C(=O)Nc2ccc(C(=O)Nc3ccc(S(=O)(=O)O)c4cc(S(=O)(=O)O)cc(S(=O)(=O)O)c34)cc2)cc1)Nc1ccc(C(=O)Nc2ccc(C(=O)Nc3ccc(S(=O)(=O)O)c4cc(S(=O)(=O)O)cc(S(=O)(=O)O)c34)cc2)cc1	1.5
CC(=O)Nc1ccc2cc(S(=O)(=O)O)c(/N=N/c3ccc(S(=O)(=O)CCOS(=O)(=O)O)cc3)c(O)c2c1	1.0
Nc1c(/N=N/c2ccc(S(=O)(=O)CCOS(=O)(=O)O)cc2)c(S(=O)(=O)O)cc2cc(S(=O)(=O)O)c(/N=N/c3ccc(S(=O)(=O)CCOS(=O)(=O)O)cc3)c(O)c12	0.8

1: Nc1c(/N=N/c2ccc(Nc3nc(Cl)nc(Nc4cccc(S(=O)(=O)O)c4)n3)cc2S(=O)(=O)O)c(S(=O)(=O)O)cc2c(O)c(/N=N/c3ccc(Nc4nc(Cl)nc(Nc5cccc(S(=O)(=O)O)c5)n4)cc3S(=O)(=O)O)ccc12
2: Nc1c(S(=O)(=O)O)cc(Nc2ccc(Nc3nc(Cl)nc(Nc4ccccc4S(=O)(=O)O)n3)c(S(=O)(=O)O)c2)c2c1C(=O)c1ccccc1C2=O
Query string: Hey, which is lower on measured HS (Hill slope), FXIIIa inhibition, 1 or 2 ? Reply briefly: the label of your chosen item.
Result string: 2

* * *

target: FXIIIa (Homo sapiens, UniProt P00488); construct: purchased Haematologic Technologies; host or cells: human plasma; experiment: bisubstrate, fluorescence-based trans-glutamination assay; assay type: biochemical; conditions: logistic fit eq 1
readout.label: HS (Hill slope), FXIIIa inhibition

Here's what some known entries look like.
Cc1ccc(C(=O)Nc2ccc(S(=O)(=O)O)c3cc(S(=O)(=O)O)cc(S(=O)(=O)O)c23)cc1NC(=O)c1cccc(NC(=O)Nc2cccc(C(=O)Nc3cc(C(=O)Nc4ccc(S(=O)(=O)O)c5cc(S(=O)(=O)O)cc(S(=O)(=O)O)c45)ccc3C)c2)c1	1.0
COc1cc(-c2ccc(/N=N/c3ccc4c(S(=O)(=O)O)cc(S(=O)(=O)O)c(N)c4c3O)c(OC)c2)ccc1/N=N/c1ccc2c(S(=O)(=O)O)cc(S(=O)(=O)O)c(N)c2c1O	1.4
O=C(Nc1cc(C(=O)Nc2ccc(S(=O)(=O)O)cc2S(=O)(=O)O)cc(C(=O)Nc2ccc(S(=O)(=O)O)cc2S(=O)(=O)O)c1)Nc1cc(C(=O)Nc2ccc(S(=O)(=O)O)cc2S(=O)(=O)O)cc(C(=O)Nc2ccc(S(=O)(=O)O)cc2S(=O)(=O)O)c1	0.9

1: O=C(Nc1cccc(C(=O)Nc2ccc(S(=O)(=O)O)c3cc(S(=O)(=O)O)cc(S(=O)(=O)O)c23)c1)Nc1cccc(C(=O)Nc2ccc(S(=O)(=O)O)c3cc(S(=O)(=O)O)cc(S(=O)(=O)O)c23)c1
2: Cc1cc(-c2ccc(/N=N/c3ccc4c(S(=O)(=O)O)cc(S(=O)(=O)O)c(N)c4c3O)c(C)c2)ccc1/N=N/c1ccc2c(S(=O)(=O)O)cc(S(=O)(=O)O)c(N)c2c1O
Query string: Select one: 1 or 2 . Criterion: greater recorded HS (Hill slope), FXIIIa inhibition. Reply briefly: the label of your chosen item.
Result string: 2

* * *

molecular target: FXIIIa (Homo sapiens, UniProt P00488); construct: purchased Haematologic Technologies; host or cells: human plasma; test: bisubstrate, fluorescence-based trans-glutamination assay; format: biochemical; details: pH 7.4, 37 °C; substrates dansylcadaverine and N,N-dimethylcasein
pIC50: −log10 of the molar value.
readout.label: pIC50

Here's what some known entries look like.
Nc1c(/N=N/c2ccc(S(=O)(=O)CCOS(=O)(=O)O)cc2)c(S(=O)(=O)O)cc2cc(S(=O)(=O)O)c(/N=N/c3ccc(S(=O)(=O)CCOS(=O)(=O)O)cc3)c(O)c12 [compound 16]	5.62
O=C(Nc1cc(C(=O)Nc2ccc(S(=O)(=O)O)cc2S(=O)(=O)O)cc(C(=O)Nc2ccc(S(=O)(=O)O)cc2S(=O)(=O)O)c1)Nc1cc(C(=O)Nc2ccc(S(=O)(=O)O)cc2S(=O)(=O)O)cc(C(=O)Nc2ccc(S(=O)(=O)O)cc2S(=O)(=O)O)c1 [compound 9]	3.54
CN(c1ccc2c(O)c(/N=N/c3ccccc3S(=O)(=O)O)c(S(=O)(=O)O)cc2c1)c1nc(Cl)nc(Nc2cccc(S(=O)(=O)O)c2)n1 [compound 12]	4.63
O=C(Nc1cccc(C(=O)Nc2ccc(S(=O)(=O)O)c3cc(S(=O)(=O)O)cc(S(=O)(=O)O)c23)c1)Nc1cccc(C(=O)Nc2ccc(S(=O)(=O)O)c3cc(S(=O)(=O)O)cc(S(=O)(=O)O)c23)c1 [compound 7]	3.79
Nc1c(/N=N/c2ccc(Nc3nc(Cl)nc(Nc4cccc(S(=O)(=O)O)c4)n3)cc2S(=O)(=O)O)c(S(=O)(=O)O)cc2c(O)c(/N=N/c3ccc(Nc4nc(Cl)nc(Nc5cccc(S(=O)(=O)O)c5)n4)cc3S(=O)(=O)O)ccc12 [compound 14]	5.29
CC(=O)Nc1ccc2cc(S(=O)(=O)O)c(/N=N/c3ccc(S(=O)(=O)CCOS(=O)(=O)O)cc3)c(O)c2c1 [compound 15]	4.78
O=S(=O)(O)c1ccc(/N=N/c2ccc(/N=N/c3c(O)c(S(=O)(=O)O)cc4cc(S(=O)(=O)O)ccc34)c(S(=O)(=O)O)c2)cc1 [compound 17]	4.80
COc1cc(-c2ccc(/N=N/c3ccc4c(S(=O)(=O)O)cc(S(=O)(=O)O)c(N)c4c3O)c(OC)c2)ccc1/N=N/c1ccc2c(S(=O)(=O)O)cc(S(=O)(=O)O)c(N)c2c1O [compound 19]	4.86

a: Cc1[nH]n(-c2cc(Cl)c(S(=O)(=O)O)cc2Cl)c(=O)c1/N=N/c1cc(Nc2nc(Cl)nc(Nc3ccc(S(=O)(=O)O)cc3)n2)ccc1S(=O)(=O)O [compound 11]
b: Nc1c(S(=O)(=O)O)cc(Nc2ccc(Nc3nc(Cl)nc(Nc4ccccc4S(=O)(=O)O)n3)c(S(=O)(=O)O)c2)c2c1C(=O)c1ccccc1C2=O [compound 13]
Query string: Hey, which is lower on measured pIC50, a or b ? Reply briefly: the label of your chosen item.
Result string: a
